Each entry below carries its recorded NF‐ĸB luciferase reporter assay, Crosslinking, Top ratio.
biological target: human GITR on 293F‐hGITR cells (Homo sapiens (Human)., UniProt Q9Y5U5-1); test: cell-based or functional assay
Sequence (Q9Y5U5 26-241): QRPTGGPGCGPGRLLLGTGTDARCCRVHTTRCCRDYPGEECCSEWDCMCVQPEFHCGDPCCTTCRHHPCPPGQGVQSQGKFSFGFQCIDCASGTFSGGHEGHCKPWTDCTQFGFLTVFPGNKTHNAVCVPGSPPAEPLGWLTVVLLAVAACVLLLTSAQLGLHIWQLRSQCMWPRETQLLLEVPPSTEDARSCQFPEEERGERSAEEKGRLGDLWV
Number only, in fold; omit the unit.

hab076e1 (antibody, V domains shown, as the VH of m15 (3503‐hab076‐VH); 3503‐hab076‐Vk(C2Y); the substitution is against the VL of m15 (Cys in FR3 of VL); position not given; Whole antibody, human IgG1 heavy chain constant region, human kappa light chain constant region; source: FreeStyle 293F, transiently co-transfected, purified from culture supernatant) VH: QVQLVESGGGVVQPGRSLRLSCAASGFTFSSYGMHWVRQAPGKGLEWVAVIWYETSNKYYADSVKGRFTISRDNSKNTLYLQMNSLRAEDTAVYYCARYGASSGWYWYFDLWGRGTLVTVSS VL: DIQLTQSPSFLSASVGDRVTITCRASQGISSYLAWYQQKPGKAPKLLIYAASTLQSGVPSRFSGSGSGTEFTLTISSLQPEDFATYYCQQLNSYPFTFGQGTKLEIK	13
hab076 (antibody, V domains shown, 3503‐hab076‐VH; 3503‐hab076‐Vk; Whole antibody, human IgG1 heavy chain constant region, human kappa light chain constant region; source: FreeStyle 293F, transiently co-transfected, purified from culture supernatant) VH: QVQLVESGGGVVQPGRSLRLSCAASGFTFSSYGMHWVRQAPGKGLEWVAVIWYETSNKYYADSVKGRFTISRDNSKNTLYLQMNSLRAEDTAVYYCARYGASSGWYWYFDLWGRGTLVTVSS VL: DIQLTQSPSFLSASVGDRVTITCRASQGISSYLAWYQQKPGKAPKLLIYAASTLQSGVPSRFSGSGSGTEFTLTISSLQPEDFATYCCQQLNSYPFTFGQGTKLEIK	20
hab070 (antibody, V domains shown, 3503‐hab070‐VH; 3503‐hab070‐Vk; Whole antibody, human IgG1 heavy chain constant region, human kappa light chain constant region; source: FreeStyle 293F, transiently co-transfected, purified from culture supernatant) VH: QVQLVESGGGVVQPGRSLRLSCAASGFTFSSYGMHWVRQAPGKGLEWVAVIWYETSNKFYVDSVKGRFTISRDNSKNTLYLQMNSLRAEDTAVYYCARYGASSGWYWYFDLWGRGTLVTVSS VL: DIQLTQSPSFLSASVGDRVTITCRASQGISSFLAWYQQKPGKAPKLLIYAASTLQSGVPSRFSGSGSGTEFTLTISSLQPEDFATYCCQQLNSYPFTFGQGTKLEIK	16
mAb070 (antibody, V domains shown, as the VH of m14; as the VL of m14; Human-murine chimeric antibody from H2L2 mice: human variable regions, rat constant regions; source: hybridoma cell culture supernatant, purified (Protein A)) VH: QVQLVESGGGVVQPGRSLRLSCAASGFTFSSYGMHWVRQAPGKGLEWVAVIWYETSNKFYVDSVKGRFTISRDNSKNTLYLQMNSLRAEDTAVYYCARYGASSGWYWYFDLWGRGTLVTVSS VL: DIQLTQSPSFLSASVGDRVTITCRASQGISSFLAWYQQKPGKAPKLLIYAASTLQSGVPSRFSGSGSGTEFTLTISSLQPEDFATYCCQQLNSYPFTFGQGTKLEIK	7

For Tab9H6v3 (antibody, V domains shown, heavy chain variable region of clone 9H6v3 (AMGEN INC.); light chain variable region of clone 9H6v3 (AMGEN INC.)) VH: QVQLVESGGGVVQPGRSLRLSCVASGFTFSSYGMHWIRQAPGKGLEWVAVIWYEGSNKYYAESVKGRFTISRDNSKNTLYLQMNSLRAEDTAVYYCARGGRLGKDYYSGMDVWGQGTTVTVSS VL: DIQMTQSPSSLSASVGDRVTITCRASQGIRNDLGWYQQKPGKAPKRLIYATSSLQSGVPSRFSGSGSGTEFTLTISSLQPEDFATYYCLQHNTYPWTFGQGTKVEIK the binder record lists NF‐ĸB luciferase reporter assay, Crosslinking, Top ratio as 14

Summary for this binder, hab064e1 (antibody, V domains shown, 3503‐hab064‐VH(N2S); the substitution is against the VH of m13; position not given; 3503‐hab064‐Vk(T2K/C2Y); the substitutions are against the VL of m13; positions not given; Whole antibody, human IgG1 heavy chain constant region, human kappa light chain constant region; source: FreeStyle 293F, transiently co-transfected, purified from culture supernatant) VH: QVQLVESGGGVVQPGRSLRLSCAASGFTFSSYGMHWVRQAPGKGLEWVAVIWYETSNKYYADSVKGRFTISRDNSKNTLYLQMNSLRAEDTAVYYCARYGGNSGWYWYFDLWGRGTLVTVSS VL: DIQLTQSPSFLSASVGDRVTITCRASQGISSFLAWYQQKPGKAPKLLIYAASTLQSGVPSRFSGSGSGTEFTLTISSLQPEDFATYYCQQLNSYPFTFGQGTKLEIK : NF‐ĸB luciferase reporter assay, Crosslinking, Top ratio is 12

GET /value?item= mAb076 (antibody, V domains shown, as the VH of m15; as the VL of m15; Human-murine chimeric antibody from H2L2 mice: human variable regions, rat constant regions; source: hybridoma cell culture supernatant, purified (Protein A)) VH: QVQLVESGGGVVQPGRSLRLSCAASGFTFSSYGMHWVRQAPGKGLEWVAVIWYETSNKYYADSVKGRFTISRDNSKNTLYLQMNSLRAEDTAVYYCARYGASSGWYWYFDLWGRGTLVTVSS VL: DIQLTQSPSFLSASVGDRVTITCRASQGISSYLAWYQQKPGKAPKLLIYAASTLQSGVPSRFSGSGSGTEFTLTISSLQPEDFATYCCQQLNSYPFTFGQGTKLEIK &field=NF‐ĸB luciferase reporter assay, Crosslinking, Top ratio returns 8

Kindly note the recorded NF‐ĸB luciferase reporter assay, Crosslinking, Top ratio for hab070e1 (antibody, V domains shown, as the VH of m14 (3503‐hab070‐VH); 3503‐hab070‐Vk(C2Y); the substitution is against the VL of m14 (Cys in FR3 of VL); position not given; Whole antibody, human IgG1 heavy chain constant region, human kappa light chain constant region; also called hab70e1; source: FreeStyle 293F, transiently co-transfected, purified from culture supernatant) VH: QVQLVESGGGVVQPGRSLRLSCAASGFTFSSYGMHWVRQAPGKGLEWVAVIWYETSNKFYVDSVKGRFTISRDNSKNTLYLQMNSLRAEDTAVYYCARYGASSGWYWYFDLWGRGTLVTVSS VL: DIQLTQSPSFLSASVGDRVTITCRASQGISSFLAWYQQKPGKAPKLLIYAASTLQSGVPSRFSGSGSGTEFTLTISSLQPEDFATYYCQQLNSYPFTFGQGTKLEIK , which is 12

What the record says about mAb064 (antibody, V domains shown, as the VH of m13; as the VL of m13; Human-murine chimeric antibody from H2L2 mice: human variable regions, rat constant regions; source: hybridoma cell culture supernatant, purified (Protein A)) VH: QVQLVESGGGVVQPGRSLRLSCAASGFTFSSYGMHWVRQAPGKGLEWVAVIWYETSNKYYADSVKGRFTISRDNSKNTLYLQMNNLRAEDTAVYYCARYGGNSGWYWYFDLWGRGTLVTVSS VL: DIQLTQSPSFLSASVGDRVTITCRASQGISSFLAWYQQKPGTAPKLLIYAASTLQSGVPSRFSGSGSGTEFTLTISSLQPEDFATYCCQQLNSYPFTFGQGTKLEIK : NF‐ĸB luciferase reporter assay, Crosslinking, Top ratio is 7

The reported NF‐ĸB luciferase reporter assay, Crosslinking, Top ratio of the binder hab064 (antibody, V domains shown, 3503‐hab064‐VH; 3503‐hab064‐Vk; Whole antibody, human IgG1 heavy chain constant region, human kappa light chain constant region; source: FreeStyle 293F, transiently co-transfected, purified from culture supernatant) VH: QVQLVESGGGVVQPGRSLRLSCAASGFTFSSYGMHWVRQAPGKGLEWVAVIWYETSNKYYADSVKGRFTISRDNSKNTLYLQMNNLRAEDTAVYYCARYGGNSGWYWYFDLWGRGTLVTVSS VL: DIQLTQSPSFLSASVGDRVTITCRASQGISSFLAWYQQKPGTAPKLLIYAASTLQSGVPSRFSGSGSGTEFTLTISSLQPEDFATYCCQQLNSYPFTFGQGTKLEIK was 12

Reference for the values: paper PMC9340783
